assay.comment: BSK_3C_VCAM1: BioMAP Diversity Plus: 3C Assay for Vascular cell adhesion molecule 1 (VCAM1) Biomarker Activity (AID 2282999)
protocol.conditions: BioMAP 3C HUVEC, VCAM1 ELISA, cytokine-stimulated; actives raise or lower the signal
Calls of active or inactive are those of the source. How the source made its calls: active means hit-call score of the fitted dose curve at least 0.9, where 1 is the maximum; inactive means score below 0.9.
Would you mind answering with one of these outcomes? Yes (active), No (inactive)

compound | assigned.class
CCCCCCCC=O | No
Nc1ccc(S(=O)(=O)c2ccc(N)cc2)cc1 | No
CCOC(=O)CCC(=O)OCC | No

Recorded test outcome, item Cc1ccc2ncccc2c1
No

Short answer needed: outcome of this test for Cc1ccc(Cl)cc1 ?
No

Kindly provide the recorded test outcome for the following compound: CC(=O)Oc1ccccc1C(=O)O
No

# lookup: test call for O=[N+]([O-])C(CO)(CO)CO
No

State the result this test recorded for CN1CCN(Cc2cc(-c3ccc4[nH]c(=O)oc4c3)co2)[C@@H](c2ccc(F)cc2)C1 .
No

Per the records of this test, what outcome belongs to Oc1ccc2ccccc2c1N=Nc1ccccc1 ?
No

Answer briefly: the call reported for CC1(C)CC(N=C=O)CC(C)(CN=C=O)C1 (configuration not stated) in this assay.
No

// outcome(item) with item = COc1cc(C=O)ccc1O
No

Assay result, entry C[C@]12C=CC(=O)C=C1CC[C@@H]1[C@@H]2C(=O)C[C@@]2(C)[C@H]1CC[C@]2(O)C(=O)CO — outcome?
No

Hi, sorry to bother you, what did the test record for CNC(=O)[C@H]1O[C@@H](n2cnc3c(NCc4cc(Cl)ccc4OCc4cc(C)no4)ncnc32)[C@H](O)[C@@H]1N ?
No

Field: outcome | Entry: NC(=O)Cn1c(=O)cc(CCN2CCN(c3nccc4sccc34)CC2)c2ccc(F)cc21
No

Could you check what this test reported for Cc1cc(NC(=O)C(=O)O)cc(C)c1Oc1ccc(O)c2c1CCC2 ?
No

What call does the record list for O=C(N[C@@H](Cc1ccccc1)[C@@H](O)C(=O)N1C[C@@H](O)[C@@H](O)C1)c1cc2cc(Cl)ccc2[nH]1 ?
No

Which result was noted for this compound in the test: CCCCCCCCCCC
No

Which outcome did this test record for the compound CCOC(=O)C(C)(C)Oc1ccc(Cl)cc1 ?
No

What classification did NS(=O)(=O)c1cc2c(cc1Cl)NCNS2(=O)=O end up with in this test?
No

---

Read-out: Human Leukocyte Antigen - DR isotype (HLADR), HLA-DRA (gene 3122)
assay.comment: BSK_3C_HLADR: BioMAP Diversity Plus: 3C Assay for Human Leukocyte Antigen - DR isotype (HLADR) Biomarker Activity (AID 2283019)
protocol.conditions: primary human endothelial cells (HUVEC); actives raise or lower the signal
Activity calls are given as the source filed them. The calls were made as follows: active = hit-call score of the fitted dose curve at least 0.9, where 1 is the maximum; inactive = score below 0.9.
Return exactly one item of active, inactive

Recorded results for 4 molecules are shown here.
molecule | assigned.class
Clc1cc(Cl)c(Cl)cc1Cl | inactive
Cc1cccc([N+](=O)[O-])c1C | inactive
CN1CCN(Cc2cc(-c3ccc4[nH]c(=O)oc4c3)co2)[C@@H](c2ccc(F)cc2)C1 | active
COc1cc(C=O)ccc1O | inactive

Hi, sorry to bother you, what did the test record for Cc1nc(-c2ccc3c(c2)CCN(CCC2CCC(NC(=O)/C=C/c4ccc(F)cc4)CC2)CC3)no1 (centres undefined) ?
active

Field: outcome | Entry: Cc1nc(C)nc(N2C[C@@H](C)N(c3ccnc([C@@H](C)O)n3)[C@@H](C)C2)n1
inactive

Write down the call the test reported for this molecule. Item: C=CCc1ccc(O)c(OC)c1
inactive

Hi, do you know how COc1cc(S(=O)(=O)O)c(C)cc1N=Nc1c(O)ccc2cc(S(=O)(=O)O)ccc12 came out in this test?
inactive

Hi, sorry to bother you, what did the test record for COc1ccc(C)cc1N ?
inactive

Can you look up the reported call for CCCCCCCCCCCCCCCCCC(=O)O for me?
inactive

Dear colleague, could you share the recorded outcome for Cc1cccc(Nc2cc(Cl)nc(SCC(=O)O)n2)c1C when you have a moment?
inactive

---

assay.comment: CEETOX_H295R_OHPREG: CeeTox H295R High-throughput Steroidogenesis Assay for OH-Pregnenolone (OHPREG) (AID 2283434)
protocol.conditions: actives raise or lower the signal
Activity calls are given as the source filed them. How the source made its calls: active means hit-call score of the fitted dose curve at least 0.9, where 1 is the maximum; inactive means score below 0.9.
Give your call using only these classes: TRUE = active, FALSE = inactive

compound | assigned.class
Cc1nc(-c2ccc3c(c2)CCN(CCC2CCC(NC(=O)/C=C/c4ccc(F)cc4)CC2)CC3)no1 (stereo not given) | TRUE

# fetch the recorded call for COc1ccc(S(=O)(=O)N2C(=O)[C@@](c3ccccc3OC)(N3C[C@H](O)C[C@H]3C(=O)N(C)C)c3cc(Cl)ccc32)c(OC)c1 here
FALSE

---

Read-out: Transforming growth factor beta 1 (TGFb1), TGFB1 (gene 7040)
assay.comment: BSK_KF3CT_TGFb1: BioMAP Diversity Plus: KF3CT Assay for Transforming growth factor beta 1 (TGFb1) Biomarker Activity (AID 2283072)
protocol.conditions: primary human keratinocytes with fibroblasts; actives raise or lower the signal
Activity calls are given as the source filed them. Rule for the calls: active = hit-call score of the fitted dose curve at least 0.9, where 1 is the maximum; inactive = score below 0.9.
Would you mind answering with one of these outcomes? active, inactive

Solved cases (3 shown):
molecule | assigned.class
COc1cc(S(=O)(=O)O)c(C)cc1N=Nc1c(O)ccc2cc(S(=O)(=O)O)ccc12 | inactive
CCCCCCCCCCO | inactive
c1cc(-c2ccncc2)ccn1 | inactive

For this molecule, state the assay outcome: C=CCOC(=O)c1ccccc1C(=O)OCC=C
inactive

Which outcome was entered for the molecule CCCCc1ccc2c(n1)[C@@H](c1ccc(OC)cc1C[C@H](C)C(=O)O)[C@H](C(=O)O)[C@H]2c1ccc2c(c1)OCO2 in this test?
inactive

// param item: CNC(=O)[C@H]1O[C@@H](n2cnc3c(NCc4cc(Cl)ccc4OCc4cc(C)no4)ncnc32)[C@H](O)[C@@H]1N ; yields the recorded call
inactive

Hey, what did the test say about Cc1nc(-c2ccc3c(c2)CCN(CCC2CCC(NC(=O)/C=C/c4ccc(F)cc4)CC2)CC3)no1 (stereo not given) ?
inactive

I'd appreciate the recorded outcome for CC(=O)OC/C=C(\C)CCC=C(C)C from this test.
inactive

GET /call?item= COCCOC[C@H](CC1(C(=O)NC2CCC(C(=O)O)CC2)CCCC1)C(=O)Oc1ccc2c(c1)CCC2 (stereo not given in full) returns the recorded outcome of this test.
inactive

Tell me the recorded outcome of this test for O=c1[nH]cc(F)c(=O)[nH]1 .
inactive

State the result this test recorded for CN1CCCC1=O .
inactive

// outcome(item) with item = COc1ccc(S(=O)(=O)N2C(=O)[C@@](c3ccccc3OC)(N3C[C@H](O)C[C@H]3C(=O)N(C)C)c3cc(Cl)ccc32)c(OC)c1
inactive

Per the assay record, what outcome was assigned to Cc1ccc(C(C)C)c(O)c1 ?
inactive

Record request — test call for Cc1c(C(=O)O)c(O)cc2c1C(=O)c1c(O)c([C@@H]3O[C@H](CO)[C@@H](O)[C@H](O)[C@H]3O)c(O)c(O)c1C2=O
inactive

Dear all, I need the recorded test outcome for CCCCOC(=O)CCCCCCCCC(=O)OCCCC , thank you.
inactive

---

Read-out: 3-Hydroxy-3-Methylglutaryl-CoA Synthase 2 (HMGCS2), HMGCS2 (gene 3158)
assay.comment: LTEA_HepaRG_HMGCS2: Life Technologies and Expression Analysis (LTEA) Assay for 3-Hydroxy-3-Methylglutaryl-CoA Synthase 2 (HMGCS2) using HepaRG (AID 2283504)
protocol.conditions: mRNA level, 48 h; actives raise or lower the signal
Active and inactive are the calls of the source. Rule for the calls: active = hit-call score of the fitted dose curve at least 0.9, where 1 is the maximum; inactive = score below 0.9.
Response enum: active, inactive

compound | assigned.class
c1cc(-c2ccncc2)ccn1 | inactive
CCCCCCCCCCCCCCCC | inactive
Cc1ccc(Cl)cc1 | inactive
CCCCCCOCCO | inactive
CCCCCCCCCCCCCO | inactive

Which outcome was assigned to CCNc1cccc(C)c1 in this test?
inactive

Per the assay record, what outcome was assigned to NC(=O)Cn1c(=O)cc(CCN2CCN(c3nccc4sccc34)CC2)c2ccc(F)cc21 ?
active

Outcome? CCCCCCCCCCCC(=O)OC
inactive

For C=CCOC(=O)c1ccccc1C(=O)OCC=C , which call appears in the assay record?
inactive

Could you kindly confirm the outcome this assay logged for O=C(O)CCCCC(=O)O ?
inactive

Recorded test call requested for CCOc1ccc2c(c1)C(C)=CC(C)(C)N2
active

Test call, this compound: CNC(=O)[C@H]1O[C@@H](n2cnc3c(NCc4cc(Cl)ccc4OCc4cc(C)no4)ncnc32)[C@H](O)[C@@H]1N
inactive

Any idea what this test logged for CN1CCN(Cc2cc(-c3ccc4[nH]c(=O)oc4c3)co2)[C@@H](c2ccc(F)cc2)C1 ?
inactive

Per the assay record, what outcome was assigned to CC(=O)Oc1ccccc1C(=O)O ?
inactive

---

Read-out: Plasminogen activator inhibitor-1 (PAI1), SERPINE1 (gene 5054)
assay.comment: BSK_BE3C_PAI1: BioMAP Diversity Plus: BE3C Assay for Plasminogen activator inhibitor-1 (PAI1) Biomarker Activity (AID 2283037)
protocol.conditions: primary human bronchial epithelial cells; actives raise or lower the signal
Active and inactive are the calls of the source. The calls were made as follows: active = hit-call score of the fitted dose curve at least 0.9, where 1 is the maximum; inactive = score below 0.9.
Give one outcome, nothing more. List: active, inactive

Worked set:
molecule | assigned.class
O=C(O)CCCCC(=O)O | inactive
Nc1ccccc1N | inactive
CCCCCCCCCCCCCO | inactive
CC(=O)Oc1ccccc1C(=O)O | inactive
COc1ccc2c(c1)c(CC(=O)O)c(C)n2C(=O)c1ccc(Cl)cc1 | inactive

I would be grateful if you could indicate the recorded call for CCCCCC(=O)O .
inactive

Test call, this molecule: O=C(N[C@@H](Cc1ccccc1)[C@@H](O)C(=O)N1C[C@@H](O)[C@@H](O)C1)c1cc2cc(Cl)ccc2[nH]1
inactive

Please let me know the test result on file for CC1(C)CC(N=C=O)CC(C)(CN=C=O)C1 (centres undefined) .
inactive

What outcome does the record of this test show for Cc1ccc(C)c(O)c1C ?
inactive

Which result was noted for this molecule in the test: CC(CO)OC(C)CO (centres undefined) (tested in a mixture with another compound)
inactive

For this molecule, state the assay outcome: C[Si]1(C)O[Si](C)(C)O[Si](C)(C)O[Si](C)(C)O1
inactive

Hi, sorry to bother you, what did the test record for Cc1ccc(C(C)C)c(O)c1 ?
inactive

Entry Cc1cccc(C)c1O : call = ?
inactive

Can you look up the reported call for NC(=O)Cn1c(=O)cc(CCN2CCN(c3nccc4sccc34)CC2)c2ccc(F)cc21 for me?
inactive

For Cc1cc(NC(=O)C(=O)O)cc(C)c1Oc1ccc(O)c2c1CCC2 , which call appears in the assay record?
inactive

Name the outcome recorded for CCCCCCCCCCCC(=O)OC in the assay.
inactive

Check the results log: what was the call for COc1cc(-c2nc(NC(=O)c3cc4cc(C)cc(C)c4n3CC(=O)O)sc2CCC2CCCCC2)c(OC)cc1Cl ?
active

Outcome? COc1ccc(S(=O)(=O)N2C(=O)[C@@](c3ccccc3OC)(N3C[C@H](O)C[C@H]3C(=O)N(C)C)c3cc(Cl)ccc32)c(OC)c1
inactive

Returns: the outcome recorded for Cc1nc(C)nc(N2C[C@@H](C)N(c3ccnc([C@@H](C)O)n3)[C@@H](C)C2)n1 in this assay.
inactive

What did this assay record as the result for C=CCc1ccc(O)c(OC)c1 ?
inactive

Called result for CNC(=O)[C@H]1O[C@@H](n2cnc3c(NCc4cc(Cl)ccc4OCc4cc(C)no4)ncnc32)[C@H](O)[C@@H]1N
inactive

Test call, this molecule: O=C(OCCCCCOC(=O)c1ccccc1)c1ccccc1
inactive

Just curious, what result did CCCCC(CC)COC(=O)CC(C(=O)OCC(CC)CCCC)S(=O)(=O)O (centres undefined) get here?
active

From: PubChem BioAssay (EPA / NIEHS)
